# System: RPMI-8226 leukemia
experimental.readout: GI50

Input line: Requested field: GI50. Item: "N=C(N=C(N)N)N1CCN(c2ccncc2)CC1"
Output line: > 1000 µM

Input line: Requested field: GI50. Item: "COc1ccc2c(Nc3ccc(NS(C)(=O)=O)cc3)c3ccccc3nc2c1"
Output line: 0.431 µM

Input line: Requested field: GI50. Item: "COc1ccc(/C=C/c2nc(NCCCN(C)C)c3ccccc3n2)cc1"
Output line: 1.78 µM

Input line: Requested field: GI50. Item: "CC1(C)OC(=O)C=C([O-])O1.CC1(C)OC(=O)C=C([O-])O1.O=S(=O)([O-])c1ccc([O-])c2ncccc12.O=S(=O)([O-])c1ccc([O-])c2ncccc12.[Ti+4]"
Output line: > 100 µM

Input line: Requested field: GI50. Item: "Cn1c(=O)c(Oc2ccccc2F)cc2cnc(NC3CCOCC3)nc21"
Output line: > 25 µM

Input line: Requested field: GI50. Item: "N#Cc1c(-c2ccccc2)cc(-c2ccc(Nc3nc(Nc4ccc(Cl)cc4)nc(Nc4ccc(Cl)cc4)n3)cc2)nc1N"
Output line: 3.81 µM

Input line: Requested field: GI50. Item: "O=c1nc(Nc2cccc(Cl)c2)oc2cc(Cl)oc(=O)c12"
Output line: 4.02 µM

Input line: Requested field: GI50. Item: "COC(=O)c1c2c(c(C)[n+]([O-])c1C)C(=O)C=C(NCc1ccc(F)c(F)c1)C2=O"
Output line: 0.783 µM

Source listed as PubChem BioAssay (NCI).
